compounds and their reported Extinction Coefficient (ε)
TEST_DETAILS: Photophysical properties in aqueous buffer (UV-visible, fluorescence, quantum yield, extinction coefficient)
Assay type: physicochemical
TEST_CONDITIONS: Zn-bound, 50 nM to 250 nM probe
Method: Aqueous solutions were prepared by using de-ionized water with resistivity […], obtained using a Milli-Q water purification system. […] Fluorescence spectra were acquired using a PerkinElmer LS 55 fluorescence spectrophotometer. […] Quantum yields for apo and holo ZincBY-1, ZincBY-2, ZincBY-3, and ZincBY-4 were determined by plotting absorbance vs. fluorescence intensity of solutions containing ZincBY-1, ZincBY-2, ZincBY-3, or ZincBY-4 at probe concentrations ranging from 50-250 nM. […]

{"columns": ["COMPOUND", "Extinction Coefficient (ε)"],
 "data": [
  ["COc1ccc2n1[B-](F)(F)[N+]1=C(N(CCN(Cc3ccccn3)Cc3ccccn3)Cc3ccccn3)C=CC1=C2c1c(C)cc(C)cc1C [ZincBY-1, reference compound]", "4.14(33) × 10^4 M^−1cm^−1"],
  ["CC(=O)NCCOc1ccc2n1[B-](F)(F)[N+]1=C(N(CCN(Cc3ccccn3)Cc3ccccn3)Cc3ccccn3)C=CC1=C2c1c(C)cc(C)cc1C", "2.12(4) × 10^4 M^−1cm^−1"],
  ["Cc1cc(C)c(C2=C3C=CC(OCCN)=[N+]3[B-](F)(F)n3c2ccc3N(CCN(Cc2ccccn2)Cc2ccccn2)Cc2ccccn2)c(C)c1", "2.21(5) × 10^4 M^−1cm^−1"],
  ["Cc1cc(C)c(C2=C3C=CC(OCCN=[N+]=[N-])=[N+]3[B-](F)(F)n3c2ccc3N(CCN(Cc2ccccn2)Cc2ccccn2)Cc2ccccn2)c(C)c1", "2.57(35) × 10^4 M^−1cm^−1"]
]}

====

molecules and their reported λAbs (max)
TEST_DETAILS: Photophysical properties in aqueous buffer (UV-visible, fluorescence, quantum yield, extinction coefficient)
Type: physicochemical
TEST_CONDITIONS: Zn-bound, aqueous buffer pH 7.2

{"columns": ["MOLECULE", "UNITS_LABEL", "λAbs (max)"],
 "data": [
  ["Cc1cc(C)c(C2=C3C=CC(OCCN=[N+]=[N-])=[N+]3[B-](F)(F)n3c2ccc3N(CCN(Cc2ccccn2)Cc2ccccn2)Cc2ccccn2)c(C)c1", "nm", 532],
  ["COc1ccc2n1[B-](F)(F)[N+]1=C(N(CCN(Cc3ccccn3)Cc3ccccn3)Cc3ccccn3)C=CC1=C2c1c(C)cc(C)cc1C [ZincBY-1, reference compound]", "nm", 532],
  ["Cc1cc(C)c(C2=C3C=CC(OCCN)=[N+]3[B-](F)(F)n3c2ccc3N(CCN(Cc2ccccn2)Cc2ccccn2)Cc2ccccn2)c(C)c1", "nm", 482],
  ["CC(=O)NCCOc1ccc2n1[B-](F)(F)[N+]1=C(N(CCN(Cc3ccccn3)Cc3ccccn3)Cc3ccccn3)C=CC1=C2c1c(C)cc(C)cc1C", "nm", 482]
]}

====

TEST_DETAILS: Photophysical properties in aqueous buffer (UV-visible, fluorescence, quantum yield, extinction coefficient)
Type: physicochemical
TEST_CONDITIONS: Apo (TPEN), aqueous buffer pH 7.2
compounds and their reported λAbs (max)

{"columns": ["COMPOUND", "λAbs (max) / nm"],
 "data": [
  ["CC(=O)NCCOc1ccc2n1[B-](F)(F)[N+]1=C(N(CCN(Cc3ccccn3)Cc3ccccn3)Cc3ccccn3)C=CC1=C2c1c(C)cc(C)cc1C", 572],
  ["Cc1cc(C)c(C2=C3C=CC(OCCN=[N+]=[N-])=[N+]3[B-](F)(F)n3c2ccc3N(CCN(Cc2ccccn2)Cc2ccccn2)Cc2ccccn2)c(C)c1", 532],
  ["Cc1cc(C)c(C2=C3C=CC(OCCN)=[N+]3[B-](F)(F)n3c2ccc3N(CCN(Cc2ccccn2)Cc2ccccn2)Cc2ccccn2)c(C)c1", 571],
  ["COc1ccc2n1[B-](F)(F)[N+]1=C(N(CCN(Cc3ccccn3)Cc3ccccn3)Cc3ccccn3)C=CC1=C2c1c(C)cc(C)cc1C [ZincBY-1, reference compound]", 529]
]}
